- ASSAYED_SYSTEM: Ataxin-2 (Homo sapiens) (UniProt Q99700)
- Sequence (Q99700 whole entry): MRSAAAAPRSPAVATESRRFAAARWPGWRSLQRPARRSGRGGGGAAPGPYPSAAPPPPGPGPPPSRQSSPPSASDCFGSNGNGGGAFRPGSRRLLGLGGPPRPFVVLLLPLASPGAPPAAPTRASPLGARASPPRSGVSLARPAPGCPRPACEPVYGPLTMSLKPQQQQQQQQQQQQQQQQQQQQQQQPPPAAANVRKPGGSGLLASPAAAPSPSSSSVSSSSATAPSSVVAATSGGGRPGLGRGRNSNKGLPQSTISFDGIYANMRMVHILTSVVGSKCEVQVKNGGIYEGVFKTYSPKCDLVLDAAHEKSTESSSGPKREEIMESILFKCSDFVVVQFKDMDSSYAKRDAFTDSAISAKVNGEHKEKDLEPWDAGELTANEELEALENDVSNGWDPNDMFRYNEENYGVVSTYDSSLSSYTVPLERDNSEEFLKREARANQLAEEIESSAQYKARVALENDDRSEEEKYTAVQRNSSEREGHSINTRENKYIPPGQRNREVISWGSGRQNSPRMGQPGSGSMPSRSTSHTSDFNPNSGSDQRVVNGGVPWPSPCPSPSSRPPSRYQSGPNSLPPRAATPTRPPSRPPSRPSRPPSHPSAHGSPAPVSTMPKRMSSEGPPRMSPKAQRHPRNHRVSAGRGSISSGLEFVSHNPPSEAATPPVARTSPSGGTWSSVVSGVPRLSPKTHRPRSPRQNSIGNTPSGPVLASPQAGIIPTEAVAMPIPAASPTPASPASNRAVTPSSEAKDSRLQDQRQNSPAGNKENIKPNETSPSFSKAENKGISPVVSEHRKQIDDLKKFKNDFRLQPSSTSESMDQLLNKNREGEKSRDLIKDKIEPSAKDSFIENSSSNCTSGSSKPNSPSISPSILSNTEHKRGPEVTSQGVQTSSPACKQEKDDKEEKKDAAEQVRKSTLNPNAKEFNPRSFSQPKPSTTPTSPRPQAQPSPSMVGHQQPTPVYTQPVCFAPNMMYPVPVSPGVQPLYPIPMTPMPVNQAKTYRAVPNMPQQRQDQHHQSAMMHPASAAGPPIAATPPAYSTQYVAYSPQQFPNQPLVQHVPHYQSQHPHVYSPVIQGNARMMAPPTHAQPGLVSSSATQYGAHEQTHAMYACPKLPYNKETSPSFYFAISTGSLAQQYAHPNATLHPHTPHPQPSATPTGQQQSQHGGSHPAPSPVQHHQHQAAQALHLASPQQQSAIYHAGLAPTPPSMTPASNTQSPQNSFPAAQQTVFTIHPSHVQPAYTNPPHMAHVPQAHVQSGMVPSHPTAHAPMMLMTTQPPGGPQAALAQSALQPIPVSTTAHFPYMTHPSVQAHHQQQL
- ASSAY_TEXT: qHTS for Inhibitors of ATXN expression.
- Type: functional
The campaign covered roughly 400,000 compounds. About 2,100 (0.53%) were called active. About 14% were inconclusive and are not listed. How the calls were made is not given here. The entries come from a sample that favours actives as a whole.
The categories you may choose from are active, inactive

Here's what some known entries look like.
>>> class("C=CCn1c(SCCN2C(=O)c3ccccc3C2=O)nc2scc(-c3ccc(F)cc3)c2c1=O")
"inactive"
>>> class("N#Cc1c2ccc(O)cc2n2ccccc12")
"inactive"
>>> class("O=C(NCCCCCCCN1CCCCCCC1)C(C1CCCCC1)C1CCCCC1")
"active"
>>> class("CCOC(=O)c1c(C)[nH]c(C(=O)N(C)CC(=O)Nc2ccc(OCC)c(OCC)c2)c1C")
"inactive"
>>> class("Cc1nn(CC(=O)NCCCN2CCCCC2)c(=O)c2cccn12")
"inactive"

[ask] Please share the test call associated with CCn1c(=N)c(C(=O)NC2CCCC2)cc2c(=O)n3ccccc3nc21 .
[reply] inactive

[ask] Could you check what this test reported for COc1cccc(N(CC(=O)N2CCCCCC2)S(C)(=O)=O)c1 ?
[reply] inactive

[ask] Hi team, can someone confirm the assay call for COc1ccc(C2=CC(c3ccccc3Cl)n3nc(-c4ccc(C)cc4)nc3N2)cc1 (stereo not given) ?
[reply] inactive

[ask] I'd appreciate the recorded outcome for C=CCn1c(SCC(=O)c2[nH]c(C)c(C(=O)OCC)c2C)nc2scc(-c3ccc(OC)c(OC)c3)c2c1=O from this test.
[reply] active

[ask] For this molecule, state the assay outcome: Cc1ccc2c(Cl)cc(Cl)c(OCC(=O)O)c2n1
[reply] inactive
